src = patent US20120142668A1

# Subject of test: recombinant human cathepsin C (Homo sapiens)
# Sequence (P53634 25-463): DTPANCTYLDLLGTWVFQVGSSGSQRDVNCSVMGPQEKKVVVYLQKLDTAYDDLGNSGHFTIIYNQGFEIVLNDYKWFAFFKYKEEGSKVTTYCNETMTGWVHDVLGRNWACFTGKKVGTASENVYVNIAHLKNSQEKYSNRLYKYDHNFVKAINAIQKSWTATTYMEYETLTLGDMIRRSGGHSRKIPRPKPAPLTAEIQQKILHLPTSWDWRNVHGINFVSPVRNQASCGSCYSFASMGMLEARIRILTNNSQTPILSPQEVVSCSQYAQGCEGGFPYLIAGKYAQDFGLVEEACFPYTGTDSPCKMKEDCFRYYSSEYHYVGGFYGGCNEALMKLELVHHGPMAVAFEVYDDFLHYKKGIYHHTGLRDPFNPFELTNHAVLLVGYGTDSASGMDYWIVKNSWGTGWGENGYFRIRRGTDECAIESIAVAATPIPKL
# Procedure summary: Recombinant Cathepsin C In Vitro Assay (cleavage of fluorogenic substrate H-Ser-Tyr-AMC)
# Condition context: 24 pM enzyme, pH 5.5, one hour preincubation with compound at room temperature, read-out: concentration at which 50% cathepsin C inhibition is exhibited
Where a name gives a salt, the structure may show the parent alone.
Assay metric: IC50

{"Molecule": "C[C@H](N)C(=O)N[C@H](/C=C/C(=O)N(C)C)CCc1ccccc1 [Example 3, hydrochloride]", "Test value": "~1000 nM"}
{"Molecule": "C[C@H](N)C(=O)N[C@H](/C=C/C(=O)NCc1ccccc1)CCc1ccccc1 [Example 1, hydrochloride]", "Test value": "~100 nM"}
